# system-under-test: UniProt:P21802
# Sequence (P21802 22-821): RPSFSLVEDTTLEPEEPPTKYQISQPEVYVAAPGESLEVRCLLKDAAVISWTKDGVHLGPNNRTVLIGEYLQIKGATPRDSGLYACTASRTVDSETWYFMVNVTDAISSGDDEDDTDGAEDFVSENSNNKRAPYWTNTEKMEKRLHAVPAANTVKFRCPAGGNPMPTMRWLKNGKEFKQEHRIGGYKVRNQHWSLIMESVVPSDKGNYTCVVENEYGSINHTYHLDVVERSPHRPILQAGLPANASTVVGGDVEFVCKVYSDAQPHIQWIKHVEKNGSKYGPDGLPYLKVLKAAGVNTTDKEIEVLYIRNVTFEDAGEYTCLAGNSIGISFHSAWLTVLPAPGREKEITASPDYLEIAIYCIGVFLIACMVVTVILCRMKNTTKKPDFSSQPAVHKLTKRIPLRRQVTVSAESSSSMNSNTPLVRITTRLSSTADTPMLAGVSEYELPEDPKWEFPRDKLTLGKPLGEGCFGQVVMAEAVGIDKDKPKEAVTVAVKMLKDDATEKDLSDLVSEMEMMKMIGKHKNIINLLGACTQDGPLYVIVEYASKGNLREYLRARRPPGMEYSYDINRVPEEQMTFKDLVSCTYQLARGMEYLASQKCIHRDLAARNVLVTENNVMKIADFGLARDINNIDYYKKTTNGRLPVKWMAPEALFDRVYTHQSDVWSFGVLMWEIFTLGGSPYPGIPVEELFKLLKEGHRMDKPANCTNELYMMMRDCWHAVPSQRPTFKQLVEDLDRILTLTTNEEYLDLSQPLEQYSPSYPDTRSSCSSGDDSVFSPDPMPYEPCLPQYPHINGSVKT
# experiment-description: FGFR Enzymatic Assay, FGFR2 un-phosphorylated
pIC50: −log10 of the molar value.
Reported pIC50 values follow for various molecules

IN: // pIC50 lookup, key: COC(=O)N1C[C@@H](C)N(c2ncc3[nH]nc(-c4ccc(N5CCN(C(C)(C)C(=O)O)CC5)cc4)c3n2)[C@@H](C)C1 [Example 31]
OUT: 6.30 to 7.00

IN: Try this molecule next: C[C@@H]1CN(c2ccc(-c3n[nH]c4cnc(N5[C@H](C)CN(C(=O)N6CCC(F)C6)C[C@@H]5C)nc34)cn2)CCN1 (stereo partly shown) [Example 10]
OUT: 5.70 to 6.30

IN: Item: COC(=O)N1C[C@@H](C)N(c2ncc3[nH]nc(-c4ccc(N5CCO[C@H](C)C5)nc4)c3n2)[C@@H](C)C1 [Example 32]
OUT: 5.70 to 6.30

IN: And for C[C@@H]1CN(c2ccc(-c3n[nH]c4cnc(N5CC6CCC5CN6C(=O)N5CCCC5)nc34)cn2)CCN1 (stereo partly shown) [Example 20] ?
OUT: 5.70 to 6.30

IN: Try CCOC(=O)N1C[C@@H](C)N(c2ncc3[nH]nc(-c4ccc(N5CCN[C@H](C)C5)nc4)c3n2)[C@@H](C)C1 [Example 11] next.
OUT: 5.70 to 6.30

IN: Same thing, different molecule: COC(=O)N1C[C@@H](C)N(c2ncc3[nH]nc(-c4ccc(N5CCN(C(C)CO)CC5)cc4)c3n2)[C@@H](C)C1 (stereo partly shown) [Example 29]
OUT: 5.70 to 6.30

IN: Please do the same for C[C@@H]1CCC[C@H](C)N1c1ncc2[nH]nc(-c3ccc(N4CCN(C)CC4)cc3)c2n1 [Example 16] as well.
OUT: 6.30 to 7.00
